molecular target: cell surface receptors for collagen on human dermal fibroblasts; assay: cell-binding activity relative to the inventive peptide of Examples 1 and 2
No end group written: not given here.
Endpoint: Relative Cell-Binding Activity (% relative to the SEQ ID NO:1 peptide)

Solved entries (count: 4):
[
  {
    "Substance": "Gly-Ile-Ala-Gly-Gln (SEQ ID NO:6) (peptide)",
    "Observed": 70
  },
  {
    "Substance": "FGIAGF (SEQ ID NO:5)",
    "Observed": 87
  },
  {
    "Substance": "QGIAGQ (SEQ ID NO:3)",
    "Observed": 120
  },
  {
    "Substance": "QGIAGQR (SEQ ID NO:4)",
    "Observed": 60
  }
]

P. QGAIAQ (SEQ ID NO:7)
Q. GPQGIAGQR (SEQ ID NO:2)
Query: Hello, I am sorting some records. Could you say if P or Q has the smaller Relative Cell-Binding Activity (% relative to the SEQ ID NO:1 peptide) value? Returns: label corresponding to the selected item.
Reply: P
